tested on: Plasmodium falciparum NF54/iGP1_RE9H ulg8 stage V gametocytes; assay: gametocyte viability (luciferase signal relative to DMSO control) (% of DMSO control); higher = less gametocytocidal activity, active = 50 or less; conditions: concentration: 1 µM; exposure time: 72 h
Structures can show the parent of a compound that is named as a salt. The campaign covered roughly 1,300 compounds. About 40 (3%) showed activity. The list comes from a sample in which actives are over-represented; it also holds close analogues and randomly drawn compounds.
READOUT KIND: gametocyte viability

Reference set (5 entries):
COMPOUND: Cc1cc(N)c2ccccc2[n+]1CCCCCCCCCC[n+]1c(C)cc(N)c2ccccc21 [Dequalinium dichloride]
OBSERVED: 83.5 (inactive)

COMPOUND: Cc1cc(C(=O)NNCc2ccccc2)no1
OBSERVED: 98.7 (inactive)

COMPOUND: COc1ccccc1N1CCN(CC(O)COc2cccc3ccccc23)CC1 (stereo not drawn) [Naftopidil dihydrochloride]
OBSERVED: 90.8 (inactive)

COMPOUND: CCOC(=O)O[C@]1(C(=O)COC(=O)CC)CC[C@H]2[C@@H]3CCC4=CC(=O)C=C[C@]4(C)[C@H]3[C@@H](O)C[C@@]21C [Prednicarbate]
OBSERVED: 91.7 (inactive)

COMPOUND: COc1ccccc1N1CCN(CCCNc2cc(=O)n(C)c(=O)n2C)CC1 [Urapidil hydrochloride]
OBSERVED: 75.6 (inactive)

Please report gametocyte viability for every entry that follows.
1. Clc1ccc(C(Cn2ccnc2)OCc2c(Cl)cccc2Cl)c(Cl)c1 (stereo not drawn)
2. CCN[C@H]1C[C@H](C)S(=O)(=O)c2sc(S(N)(=O)=O)cc21 [Dorzolamide hydrochloride]
3. Cc1ccccc1C(OCCN(C)C)c1ccccc1 (stereo not drawn) [Orphenadrine hydrochloride]

Outgoing:
1: 91.2 (inactive); 2: 80.2 (inactive); 3: 84.4 (inactive)

Please report gametocyte viability for every entry that follows.
1. CN(C)c1ccc(O)c2c1C[C@H]1C[C@H]3[C@H](N(C)C)C(=O)C(C(N)=O)=C(O)[C@@]3(O)C(=O)C1=C2O [Minocycline hydrochloride]
2. c1ccc(CNc2ncnc3nc[nH]c23)cc1
3. C[C@@H](O)[C@H]1C(=O)N2C(C(=O)O)=C(SCCNC=N)C[C@H]12
4. CC[C@@H]1C(=O)OC[C@@H]1Cc1cncn1C [Pilocarpine nitrate]
5. c1coc(CNc2ncnc3nc[nH]c23)c1

Outgoing:
83.1 (inactive)
69.7 (inactive)
88.8 (inactive)
98.2 (inactive)
86.5 (inactive)

Please report gametocyte viability for every entry that follows.
1. S=c1[nH]cnc2nc[nH]c12
2. O=C1c2c(O)cccc2Cc2cccc(O)c21
3. N#CC(c1ccc(Cl)cc1)c1c(Cl)cc(-n2ncc(=O)[nH]c2=O)cc1Cl (stereo not drawn)
4. CCCCCCNC(=O)n1cc(F)c(=O)[nH]c1=O
5. COc1ccccc1N1CCN(CCCCNC(=O)c2ccc3ccccc3c2)CC1

Outgoing:
["82.1 (inactive)", "89.3 (inactive)", "92.9 (inactive)", "80.2 (inactive)", "82.8 (inactive)"]

----------
system: Plasmodium falciparum NF54/iGP1_RE9H ulg8 stage V gametocytes; experiment: gametocyte viability (luciferase signal relative to DMSO control) (% of DMSO control); higher = less gametocytocidal activity, active = 50 or less; conditions: concentration: 1 µM; exposure time: 72 h
Where a name gives a salt, the structure may show the parent alone. Screen size: about 1,300 compounds; about 40 (3%) showed activity. What follows is part of a selection rich in actives, with near analogues and random picks from the rest.
Provide the reported gametocyte viability of each item.
One number for each entry.

Reference set (3 entries):
COMPOUND: O=C(O)CN(CCN(CC(=O)O)CC(=O)O)CCN(CC(=O)O)CC(=O)O
OBSERVED: 101

COMPOUND: CC#C[C@]1(O)CC[C@H]2[C@@H]3CCC4=CC(=O)CCC4=C3[C@@H](c3ccc(N(C)C)cc3)C[C@@]21C
OBSERVED: 83.1

COMPOUND: Nc1ccc(/N=N/c2ccccc2)c(N)n1 [Phenazopyridine hydrochloride]
OBSERVED: 88.3

Please report gametocyte viability for every entry that follows.
1. C[C@@H](O[C@H]1OCCN(Cc2n[nH]c(=O)[nH]2)[C@H]1c1ccc(F)cc1)c1cc(C(F)(F)F)cc(C(F)(F)F)c1 [Aprepitant]
2. CN(C)CCc1c[nH]c2ccc(C[C@H]3COC(=O)N3)cc12
3. C[C@]12CC[C@@H]3c4ccc(O)cc4C[C@@H](CCCCCCCCC[S+]([O-])CCCC(F)(F)C(F)(F)F)[C@H]3[C@@H]1CC[C@@H]2O (some centres not stated)
4. Clc1ccc(Nc2nnc(Cc3ccncc3)c3ccccc23)cc1

Outgoing:
[87.7, 83.8, 90.3, 89.2]
